Recorded kon, one value per entry.
- systemUnderTest: T1, human IL-8 (interleukin-8) (human, UniProt P10145 28-99, limits assumed)
- T1 construct: also called recombinant human IL-8
- T1 sequence (looked up): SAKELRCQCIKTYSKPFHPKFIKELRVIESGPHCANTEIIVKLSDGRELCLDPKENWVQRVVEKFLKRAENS
- experimentalProtocol: SPR (Biacore T100, 25 C), antibody captured on anti-human IgG, IL-8 as analyte, 1:1 model, Run 1
endpointName: kon (M⁻¹ s⁻¹)

binder	endpointResult
chimeric antibody HcLc made from murine 1C1.5E5 (antibody, human IgG1, kappa, V domains shown, Murine variable regions on human IgG1 and human kappa constant regions; also called chimera) VH: QVQLQQPGVELVMPGASVKLSCKASGYTFTSYWMHWVKQRPGQGLEWIGEIDPSDSNTNYNQKFKGKATLTLDKSSSTAYMQLTSLTSEDSAVYYCARELLHAVYWGQGTLVTVSS VL: DIQMTQSPSSLSASLGGKVTITCTASQDIHKYISWFQHKPGKGPRLLIHYTSTLQPGIPSRFSGSGSGRDYSFSISNLEPEDVATYYCLQYDNLWTFGGGTKLDIKR	2.75e+07
humanized antibody A0L1 (antibody, human IgG1, kappa, V domains shown, Humanized 1C1.5E5, human IgG1/kappa) VH: QVQLVQSGAEVKKPGASVKVSCKASGYTFTSYWMHWVRQAPGQGLEWMGEIDPSDSNTNYNQKFKGRVTMTRDTSISTAYMELSRLRSDDTAVYYCARELLHAVYWGQGTLVTVSS VL: DIQMTQSPSSLSASVGDRVTITCTASQDIHKYISWYQQKPGKAPKLLIHYTSTLQPGVPSRFSGSGSGTDFTFTISSLQPEDIATYYCLQYDNLWTFGQGTKVEIKR	1.49e+07
humanized antibody A1L0 (antibody, human IgG1, kappa, V domains shown, Humanized 1C1.5E5, human IgG1/kappa; also called AIL0) VH: QVQLVQSGAEVKKPGASVKVSCKASGYTFTSYWMHWVRQAPGQGLEWMGEIDPSDSNTNYNQKFKGKVTMTRDTSISTAYMELSRLRSDDTAVYYCARELLHAVYWGQGTLVTVSS VL: DIQMTQSPSSLSASVGDRVTITCTASQDIHKYISWYQQKPGKAPKLLIYDTSTLQPGVPSRFSGSGSGTDFTFTISSLQPEDIATYYCLQYDNLWTFGQGTKVEIKR	8.43e+06
humanized antibody A0L0 (antibody, human IgG1, kappa, V domains shown, Humanized 1C1.5E5, human IgG1/kappa) VH: QVQLVQSGAEVKKPGASVKVSCKASGYTFTSYWMHWVRQAPGQGLEWMGEIDPSDSNTNYNQKFKGRVTMTRDTSISTAYMELSRLRSDDTAVYYCARELLHAVYWGQGTLVTVSS VL: DIQMTQSPSSLSASVGDRVTITCTASQDIHKYISWYQQKPGKAPKLLIYDTSTLQPGVPSRFSGSGSGTDFTFTISSLQPEDIATYYCLQYDNLWTFGQGTKVEIKR	1.11e+07
